test_system: AChE (from human erythrocyte) (Homo sapiens)
Let's look at some compounds and their measured IC50.

Challenge: State, for AChE (from human erythrocyte) (Homo sapiens), measured IC50 of the compound listed here: `CCN(CC)CCNC(=O)c1ccc(CN2CCc3ccccc3C2)cc1`
Response given: > 50 µM

Challenge: Please report IC50 with AChE (from human erythrocyte) (Homo sapiens) for item `CC(C)N(CCNC(=O)c1ccc(CN2CCc3ccccc3C2)cc1)C(C)C` .
Response given: 21.5 µM

Challenge: Report IC50 under test system AChE (from human erythrocyte) (Homo sapiens) for `O=C(c1ccc(CN2CCc3ccc(Br)cc3C2)cc1)N1CCCC1` .
Response given: > 50 µM

* * *

test_system: BChE (Homo sapiens, UniProt P06276)
Construct: BChE (EC 3.1.1.8, from human serum)
Sequence (P06276 29-602): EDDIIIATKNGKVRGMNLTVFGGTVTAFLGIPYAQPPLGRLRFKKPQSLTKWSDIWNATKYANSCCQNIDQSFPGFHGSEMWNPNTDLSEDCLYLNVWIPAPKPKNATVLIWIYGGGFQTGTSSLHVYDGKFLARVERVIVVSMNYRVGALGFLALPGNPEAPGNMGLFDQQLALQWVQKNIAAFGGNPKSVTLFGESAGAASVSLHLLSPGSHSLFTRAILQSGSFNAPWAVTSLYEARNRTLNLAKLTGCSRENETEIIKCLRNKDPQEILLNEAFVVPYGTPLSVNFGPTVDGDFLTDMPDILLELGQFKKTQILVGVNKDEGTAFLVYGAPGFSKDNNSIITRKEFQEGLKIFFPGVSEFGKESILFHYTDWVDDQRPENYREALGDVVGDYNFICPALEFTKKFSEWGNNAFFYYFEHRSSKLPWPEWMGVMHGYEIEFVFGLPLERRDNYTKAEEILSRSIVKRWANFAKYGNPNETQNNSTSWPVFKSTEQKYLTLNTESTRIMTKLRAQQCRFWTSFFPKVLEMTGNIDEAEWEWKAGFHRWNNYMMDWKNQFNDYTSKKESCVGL
experimental_protocol: Kinetic study of BChE inhibition (Lineweaver-Burk)
condition_label: BChE; read-out: KI value (replot of slope against concentration)
quantity_name: Ki (nM)
Please state the figure in nM; there is no need to write the unit.

Challenge: Provide only the value of recorded Ki for `O=C(Nc1ccccc1Br)c1ccc(CN2CCc3ccccc3C2)cc1`
Response given: 520

* * *

test_system: AChE (from human erythrocyte) (Homo sapiens, UniProt P22303)
Construct: AChE (EC 3.1.1.8, from human erythrocyte); purchased Sigma-Aldrich (St. Louis, MO, USA); host or cells: human erythrocyte
Sequence (P22303 other isoform, or with tags, fused parts or gaps): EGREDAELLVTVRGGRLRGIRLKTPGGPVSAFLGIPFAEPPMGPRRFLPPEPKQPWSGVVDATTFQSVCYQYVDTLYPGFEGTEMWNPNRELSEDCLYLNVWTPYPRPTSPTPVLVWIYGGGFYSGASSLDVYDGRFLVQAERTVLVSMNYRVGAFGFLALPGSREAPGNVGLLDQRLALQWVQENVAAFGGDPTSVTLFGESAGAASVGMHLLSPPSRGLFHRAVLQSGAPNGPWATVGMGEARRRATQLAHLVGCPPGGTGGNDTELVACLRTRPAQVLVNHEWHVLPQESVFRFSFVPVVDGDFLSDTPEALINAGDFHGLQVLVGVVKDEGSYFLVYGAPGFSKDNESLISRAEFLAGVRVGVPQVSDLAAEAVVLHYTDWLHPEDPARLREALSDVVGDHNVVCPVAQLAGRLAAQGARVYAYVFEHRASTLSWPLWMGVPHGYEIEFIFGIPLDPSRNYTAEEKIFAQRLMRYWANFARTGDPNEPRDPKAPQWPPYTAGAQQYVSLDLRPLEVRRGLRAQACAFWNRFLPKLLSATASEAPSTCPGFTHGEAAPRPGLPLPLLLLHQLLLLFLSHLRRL
experimental_protocol: biochemical
condition_label: at 50 μM
Each entry below carries its recorded AChE IR (%) inhibition ratio.
# number only, unit % dropped from output

Answered cases to consult:
> print(dat)
                                smiles.text  unit.descriptor  endpoint.value
1   COC(CNC(=O)c1ccc(CN2CCc3ccccc3C2)cc1)OC                %             2.7
2  O=C(NCCN1CCCC1)c1ccc(CN2CCc3ccccc3C2)cc1                %             4.4
3  O=C(Nc1ccc(Cl)cc1F)c1ccc(CN2CCc3ccccc3C2)cc1                %               5
4  Cc1ccc2[nH]cc(CCNC(=O)c3ccc(CN4CCc5ccccc5C4)cc3)c2c1                %             4.6
5     O=C(c1ccc(CN2CCc3ccccc3C2)cc1)N1CCCC1                %            29.1

Challenge: Report measured AChE IR (%) inhibition ratio; entry is `O=C(Nc1ccc(F)cc1)c1ccc(CN2CCc3ccccc3C2)cc1`
Response given: 7.0

Challenge: Please give the documented AChE IR (%) inhibition ratio of `O=C(NCc1ccc(F)cc1)c1ccc(CN2CCc3ccccc3C2)cc1`
Response given: 2.3

Challenge: State its AChE IR (%) inhibition ratio: `O=C(NNc1ccc(F)cc1)c1ccc(CN2CCc3ccccc3C2)cc1`
Response given: 21.8

Challenge: Tell me AChE IR (%) inhibition ratio reported for `O=C(Oc1ccccc1Br)c1ccc(CN2CCc3ccccc3C2)cc1`
Response given: 26.2

* * *

test_system: AChE (from human erythrocyte) (Homo sapiens)
Construct: AChE (EC 3.1.1.8, from human erythrocyte); purchased Sigma-Aldrich (St. Louis, MO, USA); host or cells: human erythrocyte
experimental_protocol: biochemical
condition_label: at 50 μM
# cutoff 10% applies to AChE IR (%) inhibition ratio; >= gives rule met, < gives rule not met

Take a look at these entries with their results.
> print(dat)
                                   compound  assigned.label
1  O=C(Sc1ccccc1Br)c1ccc(CN2CCc3ccccc3C2)cc1        rule met
2  O=C(Nc1ccc(Br)cc1F)c1ccc(CN2CCc3ccccc3C2)cc1        rule met

Challenge: Could you verify whether the entry CCN1CCCC1CNC(=O)c1ccc(CN2CCc3ccccc3C2)cc1 (centres unmarked) shows AChE IR (%) inhibition ratio of no less than 10%?
Response given: rule met

Challenge: Is AChE IR (%) inhibition ratio for `O=C(Nc1ccccc1F)c1ccc(CN2CCc3ccccc3C2)cc1` at or above 10%?
Response given: rule not met

Challenge: Hi team, for `CC(C)N(CCNC(=O)c1ccc(CN2CCc3ccccc3C2)cc1)C(C)C` , is the recorded AChE IR (%) inhibition ratio at or above 10%?
Response given: rule met

Challenge: Dear colleague, could you confirm whether `COc1ccc2[nH]cc(CCNC(=O)c3ccc(CN4CCc5ccccc5C4)cc3)c2c1` has AChE IR (%) inhibition ratio at or above 10%?
Response given: rule not met

Challenge: Is AChE IR (%) inhibition ratio at least 10%? Consider `O=C(Nc1ccccc1)c1ccc(CN2CCc3ccccc3C2)cc1`
Response given: rule not met
